- assay.target: Cholinesterase (Homo sapiens)
- Sequence (P06276 whole entry): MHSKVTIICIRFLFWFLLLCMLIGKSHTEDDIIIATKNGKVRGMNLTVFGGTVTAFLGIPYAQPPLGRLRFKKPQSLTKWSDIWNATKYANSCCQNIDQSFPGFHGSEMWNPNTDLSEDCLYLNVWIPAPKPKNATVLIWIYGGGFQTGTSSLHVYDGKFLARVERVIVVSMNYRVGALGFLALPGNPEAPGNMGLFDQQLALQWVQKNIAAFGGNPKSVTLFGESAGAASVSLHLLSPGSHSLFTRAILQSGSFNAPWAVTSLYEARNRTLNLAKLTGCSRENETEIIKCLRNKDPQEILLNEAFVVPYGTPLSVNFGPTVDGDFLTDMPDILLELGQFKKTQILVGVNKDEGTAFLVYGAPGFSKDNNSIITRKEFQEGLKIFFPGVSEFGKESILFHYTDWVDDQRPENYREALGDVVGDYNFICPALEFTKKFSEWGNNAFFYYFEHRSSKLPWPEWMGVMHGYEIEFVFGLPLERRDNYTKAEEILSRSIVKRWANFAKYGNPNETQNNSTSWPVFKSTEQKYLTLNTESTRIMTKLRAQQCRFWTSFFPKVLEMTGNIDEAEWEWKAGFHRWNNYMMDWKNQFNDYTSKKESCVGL
- method.summary: Inhibition of human serum BuChe using butyrylthiocholine iodide as substrate incubated for 25 mins by DTNB reagent based Ellman's method
Provide the reported IC50 of each item.
One number for each entry, in nM.

COc1ccc2c3c1O[C@H]1C[C@@H](O)C=C[C@@]31CCN(CCCCc1cn(CCCC(=O)NCCc3c[nH]c4ccccc34)nn1)C2: 209
COc1ccc2[nH]cc(CCNC(=O)CCCCn3cc(CN4CC[C@@]56C=C[C@H](O)C[C@@H]5Oc5c(OC)ccc(c56)C4)nn3)c2c1: 2020
COc1ccc2[nH]c(CCNC(=O)Cn3cc(CCCCN4CCc5cc(OC)c(OC)cc5C4CCCN4C(=O)c5ccccc5C4=O)nn3)cc2c1 (configuration not stated): 57200
COc1ccc2c3c1O[C@H]1C[C@@H](O)C=C[C@@]31CCN(CCCCc1cn(CC(=O)NCCc3c[nH]c4ccccc34)nn1)C2: 907
COc1ccc2[nH]cc(CCNC(=O)Cn3cc(CCCCN4CC[C@@]56C=C[C@H](O)C[C@@H]5Oc5c(OC)ccc(c56)C4)nn3)c2c1: 554
COc1ccc2[nH]c(CCNC(=O)CCCn3cc(CCCCN4CCc5cc(OC)c(OC)cc5C4CCCN4C(=O)c5ccccc5C4=O)nn3)cc2c1 (configuration not stated): 4600

Please indicate IC50 recorded for COc1ccc2[nH]cc(CCNC(=O)Cn3cc(CCCCN(C)CCCC4c5cc(OC)c(OC)cc5CCN4C)nn3)c2c1 (configuration not stated)
1600

Values were extracted from ChEMBL document CHEMBL4837234.
